Tested on: L1210
Settings: dose 25 ng/mL
Numbered stars: 1 amine (or outer) side, 2 acyl side, 3 side chain; on linkers, the order of the positions; unused ones are H or OH. Bridge positions count the residues as written; N and C are the ends. Square brackets hold non-standard residues; d marks the D form. Peptide text beside a SMILES is read from it. * marks the point of attachment. X1 = CC[C@H](C)[C@@H](N[*:1])[C@@H](O)CC(=O)O[C@H](C(=O)[C@H](C)C(=O)[*:2])C(C)C; NMeY = CN[C@@H](Cc1ccc(O)cc1)C(=O)O; dNMeL = CN[C@H](CC(C)C)C(=O)O; Octanoyl = CCCCCCCC(=O)*; Hexanoyl = CCCCCC(=O)*
observedProperty: Cytotoxicity percent L1210 inhibition (%)
Value expressed in %; do not type the unit.

The cases that follow already have their Cytotoxicity percent L1210 inhibition on record.
>  <compound>
CCCCCCCC(=O)N(C)[C@H](CC(C)C)C(=O)N[C@@H]1C(=O)N[C@H]([C@@H](C)CC)[C@@H](O)CC(=O)O[C@@H](C(C)C)C(=O)[C@H](C)C(=O)N[C@@H](CC(C)C)C(=O)N2CCC[C@H]2C(=O)N(C)[C@@H](Cc2ccc(OC)cc2)C(=O)O[C@@H]1C [N^a -Octanoyl-, N-octanoyl didemnin A] (Octanoyl-[dNMeL]T[X1]LP[NMeY](Me); ester 2-C)

>  <Cytotoxicity percent L1210 inhibition [%]>
94

$$$$
>  <compound>
CC[C@H](C)[C@H]1NC(=O)[C@@H](NC(=O)[C@@H](CC(C)C)NC)[C@@H](C)OC(=O)[C@H](Cc2ccc(OC)cc2)N(C)C(=O)[C@@H]2CCCN2C(=O)[C@H](CC(C)C)NC(=O)[C@@H](C)C(=O)[C@H](C(C)C)OC(=O)C[C@@H]1O [Didemnin A (1), Didemnin A, reference compound] (H-[dNMeL]T[X1]LP[NMeY](Me); ester 2-C)

>  <Cytotoxicity percent L1210 inhibition [%]>
25

$$$$

Switching to the query record.
Prompt: Consider the compound CCCCCC(=O)N(C)[C@H](CC(C)C)C(=O)N[C@@H]1C(=O)N[C@H]([C@@H](C)CC)[C@@H](O)CC(=O)O[C@@H](C(C)C)C(=O)[C@H](C)C(=O)N[C@@H](CC(C)C)C(=O)N2CCC[C@H]2C(=O)N(C)[C@@H](Cc2ccc(OC)cc2)C(=O)O[C@@H]1C [N^a -Hexanoyl-, N-hexanoyl didemnin A] (Hexanoyl-[dNMeL]T[X1]LP[NMeY](Me); ester 2-C) and give its measured Cytotoxicity percent L1210 inhibition.
Response: 92

Numbers sourced from patent US5294603A.
